B1: EF-hand domain-containing protein 1 (Homo sapiens), Q5JVL4 (parent)
chain: MVSNPVHGLPFLPGTSFKDSTKTAFHRSQTLSYRNGYAIVRRPTVGIGGDRLQFNQLSQAELDELASKAPVLTYGQPKQAPPADFIPAHVAFDKKVLKFDAYFQEDVPMSTEEQYRIRQVNIYYYLEDDSMSVIEPVVENSGILQGKLIKRQRLAKNDRGDHYHWKDLNRGINITIYGKTFRVVDCDQFTQVFLESQGIELNPPEKMALDPYTELRKQPLRKYVTPSDFDQLKQFLTFDKQVLRFYAIWDDTDSMYGECRTYIIHYYLMDDTVEIREVHERNDGRDPFPLLMNRQRVPKVLVENAKNFPQCVLEISDQEVLEWYTAKDFIVGKSLTILGRTFFIYDCDPFTRRYYKEKFGITDLPRIDVSKREPPPVKQELPPYNGFGLVEDSAQNCFALIPKAPKKDVIKMLVNDNKVLRYLAVLESPIPEDKDRRFVFSYFLATDMISIFEPPVRNSGIIGGKYLGRTKVVKPYSTVDNPVYYGPSDFFIGAVIEVFGHRFIILDTDEYVLKYMESNAAQYSPEALASIQNHVRKREAPAPEAESKQTEKDPGVQELEALIDTIQKQLKDHSCKDNIREAFQIYDKEASGYVDRDMFFKICESLNVPVDDSLVKELIRMCSHGEGKINYYNFVRAFSN
partner: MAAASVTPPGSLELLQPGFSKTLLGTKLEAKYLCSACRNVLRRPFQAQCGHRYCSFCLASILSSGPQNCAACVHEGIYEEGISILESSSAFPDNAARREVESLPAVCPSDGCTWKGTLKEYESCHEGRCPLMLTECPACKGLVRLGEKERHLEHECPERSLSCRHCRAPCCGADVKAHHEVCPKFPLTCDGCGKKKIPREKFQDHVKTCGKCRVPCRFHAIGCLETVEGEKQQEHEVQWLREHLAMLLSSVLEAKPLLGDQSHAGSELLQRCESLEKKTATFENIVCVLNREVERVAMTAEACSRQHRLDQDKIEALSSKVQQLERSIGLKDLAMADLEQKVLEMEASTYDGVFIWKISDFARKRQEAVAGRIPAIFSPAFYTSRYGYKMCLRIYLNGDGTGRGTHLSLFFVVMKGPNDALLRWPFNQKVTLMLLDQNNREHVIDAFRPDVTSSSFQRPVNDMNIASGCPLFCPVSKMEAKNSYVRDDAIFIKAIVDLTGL

- Variants of: B1
- CONDITION SET: with traf2_human TRAF2, Q12933
VALUE TYPE: effect of a mutation on the interaction

- VARIANT DESCRIPTION: "T508R"
  VALUE TYPE: "effect of a mutation on the interaction"
  VALUE: "with no effect"
- VARIANT DESCRIPTION: "M448T"
  VALUE TYPE: "effect of a mutation on the interaction"
  VALUE: "with no effect"
- VARIANT DESCRIPTION: "R159W"
  VALUE TYPE: "effect of a mutation on the interaction"
  VALUE: "with no effect"
